Origin of values: patent EP4741392A1

system: TMD8 cells; assay: Viability assay of TMD8 cells (CTG); assay type: cell-based; conditions: cell viability, 120 hours
Below: a set of entries, each annotated with reported IC50.
observedProperty: IC50

> print(dat)
                                   compound  observedproperty   datavalue
1  COc1ccc(F)cc1C(=O)NCc1ccc(-c2nc(C(C)C(F)(F)F)c(-c3ncccn3)c3[nH]nc(N)c23)cc1 (single isomer, unassigned) [Example 7-2]              IC50      ≤ 5 nM
2  COc1ccc(F)cc1C(=O)NCc1ccc(-c2nc(C(C)C(F)(F)F)cc3[nH]nc(N)c23)cc1 (single isomer, unassigned) [Example 3]              IC50  5 to 10 nM
3  COc1ccc(F)cc1C(=O)NCc1ccc(-c2nc(C(C)C(F)(F)F)c(-c3ccn(C)n3)c3[nH]nc(N)c23)cc1 (single isomer, unassigned) [Example 6-2]              IC50      ≤ 5 nM

###

system: OCI-LY10 cells; experiment: Viability assay of OCI-LY10 cells (CTG); format: cell-based; conditions: Homo sapiens, OCI-Ly10, 120 h, cell viability, read-out: OCl-Ly10
The entries below come with measured IC50 values attached.
observedProperty: IC50

> print(dat)
                                   compound    datavalue
1  COc1ccc(F)cc1C(=O)NCc1ccc(-c2ncc(-c3ccc(N4CCOCC4)cn3)c3[nH]nc(N)c23)cc1 [Example 76]       ≤ 5 nM
2  COc1ccc(F)cc1C(=O)NCc1ccc(-c2ncc(-c3ccc(OCCN4CCOCC4)cn3)c3[nH]nc(N)c23)cc1 [Example 61]       ≤ 5 nM
3  COc1ccc(F)cc1C(=O)NCc1ccc(-c2nc(C)c(-c3ncccn3)c3[nH]nc(N)c23)cc1 [Example 84]  10 to 50 nM
4  COc1ccc(F)cc1C(=O)NCc1ccc(-c2nc(C(C)C(F)(F)F)c(-c3ccn(C)n3)c3[nH]nc(N)c23)cc1 (single isomer, unassigned) [Example 6-1]   5 to 10 nM
5  COc1ccc(F)cc1C(=O)NCc1ccc(-c2nc(C3CCOCC3)cc3[nH]nc(N)c23)cc1 [Example 115]  10 to 50 nM
6  C=CC(=O)N1CCCC(c2cc3[nH]nc(N)c3c(-c3ccc(CNC(=O)c4cc(F)ccc4OC)cc3)n2)C1 (stereo not shown) [Example 96]       ≤ 5 nM
7  COc1ccc(F)cc1C(=O)NCc1ccc(-c2ncc(-c3ncccn3)c3[nH]nc(N)c23)cc1 [Example 17]  10 to 50 nM

###

List of IC50 tested on UniProt:P00533.
Sequence (P00533 669-1210 limits assumed): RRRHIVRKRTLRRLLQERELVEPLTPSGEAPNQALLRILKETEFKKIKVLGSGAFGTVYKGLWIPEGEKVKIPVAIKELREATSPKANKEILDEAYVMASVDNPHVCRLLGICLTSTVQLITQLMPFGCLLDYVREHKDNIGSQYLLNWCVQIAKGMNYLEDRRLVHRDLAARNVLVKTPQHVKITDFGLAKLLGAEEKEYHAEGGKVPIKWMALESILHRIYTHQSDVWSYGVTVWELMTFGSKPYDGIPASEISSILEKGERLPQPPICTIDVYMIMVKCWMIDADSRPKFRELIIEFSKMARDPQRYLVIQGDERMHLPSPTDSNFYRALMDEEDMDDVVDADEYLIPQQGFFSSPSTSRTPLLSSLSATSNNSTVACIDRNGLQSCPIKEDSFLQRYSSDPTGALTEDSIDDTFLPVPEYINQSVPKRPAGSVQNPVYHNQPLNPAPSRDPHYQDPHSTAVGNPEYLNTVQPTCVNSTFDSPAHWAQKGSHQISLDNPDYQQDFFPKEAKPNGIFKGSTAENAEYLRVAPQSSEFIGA
observedProperty: IC50

> print(dat)
                                    compound         datavalue
 1  COc1ccc(F)cc1C(=O)NCc1ccc(-c2ncc(-c3ccc(S(C)(=O)=O)cn3)c3[nH]nc(N)c23)cc1    0.05 to 0.5 µM
 2  COc1ccc(F)cc1C(=O)NCc1ccc(-c2ncc(-c3nc4cccnc4s3)c3[nH]nc(N)c23)cc1    0.05 to 0.5 µM
 3  COc1ccc(F)cc1C(=O)NCc1ccc(-c2nc(C(C)C(F)(F)F)c(-c3ccn(C)n3)c3[nH]nc(N)c23)cc1 (single isomer, unassigned) [Example 6-2]    0.05 to 0.5 µM
 4  COc1ccc(F)cc1C(=O)NCc1ccc(-c2ncc(-c3ccc(C(=O)N4CCOCC4)cn3)c3[nH]nc(N)c23)cc1    0.05 to 0.5 µM
 5  COc1ccc(F)cc1C(=O)NCc1ccc(-c2ncc(-c3ncc(C)cn3)c3[nH]nc(N)c23)cc1    0.05 to 0.5 µM
 6  COc1ccc(F)cc1C(=O)NCc1ccc(-c2ncc(-c3cccnc3)c3[nH]nc(N)c23)cc1          > 0.5 µM
 7  COc1ccc(F)cc1C(=O)NCc1ccc(-c2ncc(-c3ccc(C(F)F)cn3)c3[nH]nc(N)c23)cc1    0.05 to 0.5 µM
 8  CCN1CCn2nc(-c3cnc(-c4ccc(CNC(=O)c5cc(F)ccc5OC)cc4)c4c(N)n[nH]c34)cc2C1  0.005 to 0.05 µM
 9  COc1ccc(F)cc1C(=O)NCc1ccc(-c2ncc(-c3ccn4nccc4n3)c3[nH]nc(N)c23)cc1  0.005 to 0.05 µM
10  COc1ccc(F)cc1C(=O)NCc1ccc(-c2ncc(-c3cc[nH]n3)c3[nH]nc(N)c23)cc1    0.05 to 0.5 µM
11  COc1ccc(F)cc1C(=O)NCc1ccc(-c2ncc(-c3ncc(C(F)(F)F)cn3)c3[nH]nc(N)c23)cc1          > 0.5 µM
12  COc1ccc(F)cc1C(=O)NCc1ccc(-c2ncc(-c3cn(C)cn3)c3[nH]nc(N)c23)cc1    0.05 to 0.5 µM
13  COc1ccc(F)cc1C(=O)NCc1ccc(-c2ncc(-c3ccc(NC(=O)C4CC4)cn3)c3[nH]nc(N)c23)cc1          > 0.5 µM
14  COc1ccc(F)cc1C(=O)NCc1ccc(-c2nc(C(C)C(F)(F)F)c(-c3ncccn3)c3[nH]nc(N)c23)cc1 (centres unmarked) [Example 7]    0.05 to 0.5 µM

###

Please consider the recorded IC50 for BTK kinase (Homo sapiens, UniProt Q06187) in what follows.
observedProperty: IC50

> print(dat)
                                    compound   datavalue
 1  COc1ccc(F)cc1C(=O)NCc1ccc(-c2nc(C3CCSCC3)cc3[nH]nc(N)c23)cc1 [Example 91]   1 to 5 nM
 2  CCN1CCn2nc(-c3cnc(-c4ccc(CNC(=O)c5cc(F)ccc5OC)cc4)c4c(N)n[nH]c34)cc2C1 [Example 72]      ≤ 1 nM
 3  COc1ccc(F)cc1C(=O)NCc1ccc(-c2ncc(-c3ccc(C(F)(F)F)cn3)c3[nH]nc(N)c23)cc1 [Example 24]  5 to 50 nM
 4  COc1ccc(F)cc1C(=O)NCc1ccc(-c2ncc(-c3ccc(N4CCOCC4)cn3)c3[nH]nc(N)c23)cc1 [Example 76]      ≤ 1 nM
 5  COc1ccc(F)cc1C(=O)NCc1ccc(-c2ncc(-c3ccc(NC(=O)C4CC4)cn3)c3[nH]nc(N)c23)cc1 [Example 79]  5 to 50 nM
 6  CNC(=O)Cn1ccc(-c2cnc(-c3ccc(CNC(=O)c4cc(F)ccc4OC)cc3)c3c(N)n[nH]c23)n1 [Example 26]   1 to 5 nM
 7  COc1ccc(F)cc1C(=O)NCc1ccc(-c2ncc(-c3ccc4c(n3)nc3n4CCOC3)c3[nH]nc(N)c23)cc1 [Example 102]  5 to 50 nM
 8  COc1ccc(F)cc1C(=O)NCc1ccc(-c2ncc(-c3ncccn3)c3[nH]nc(N)c23)cc1 [Example 17]   1 to 5 nM
 9  COc1ccc(F)cc1C(=O)NCc1ccc(-c2ncc(-c3ccc(CN4CCCCC4)cn3)c3[nH]nc(N)c23)cc1 [Example 66]      ≤ 1 nM
10  COc1ccc(F)cc1C(=O)NCc1ccc(-c2ncc(-c3ccc(C(C)(C)O)cn3)c3[nH]nc(N)c23)cc1 [Example 65]   1 to 5 nM
11  COc1ccc(F)cc1C(=O)NCc1ccc(-c2ncc(-c3cc4cnccn4n3)c3[nH]nc(N)c23)cc1 [Example 78]      ≤ 1 nM
12  COc1ccc(F)cc1C(=O)NCc1ccc(-c2ncc(-c3cc(NC(=O)C4CC4)ccn3)c3[nH]nc(N)c23)cc1 [Example 80]   1 to 5 nM
13  COc1ccc(F)cc1C(=O)NCc1ccc(-c2ncc(-c3cc4n(n3)CCN(C)C4)c3[nH]nc(N)c23)cc1 [Example 71]   1 to 5 nM
14  COc1ccc(F)cc1C(=O)NCc1ccc(-c2ncc(-c3cc4ccccn4n3)c3[nH]nc(N)c23)cc1 [Example 69]      ≤ 1 nM
15  COc1ccc(F)cc1C(=O)NCc1ccc(-c2ncc(-c3nccn4nccc34)c3[nH]nc(N)c23)cc1 [Example 98]   1 to 5 nM
16  COc1ccc(F)cc1C(=O)NCc1ccc(-c2nc(C)c(-c3ncccn3)c3[nH]nc(N)c23)cc1 [Example 84]  5 to 50 nM
17  COc1ccc(F)cc1C(=O)NCc1ccc(-c2nc(C(C)C(F)(F)F)c(-c3ncccn3)c3[nH]nc(N)c23)cc1 (single isomer, unassigned) [Example 7-2]   1 to 5 nM
18  COc1ccc(F)cc1C(=O)NCc1ccc(-c2ncc(-c3nc4ccccn4n3)c3[nH]nc(N)c23)cc1 [Example 58]   1 to 5 nM
19  COc1ccc(F)cc1C(=O)NCc1ccc(-c2ncc(-c3cnn4cccnc34)c3[nH]nc(N)c23)cc1 [Example 70]   1 to 5 nM
20  COc1ccc(F)cc1C(=O)NCc1ccc(-c2ncc(-c3ccc(OCCN4CCCC4)cn3)c3[nH]nc(N)c23)cc1 [Example 62]   1 to 5 nM
21  COc1ccc(F)cc1C(=O)NCc1ccc(-c2ncc(-c3ccc(OC(F)(F)F)cn3)c3[nH]nc(N)c23)cc1 [Example 41]   1 to 5 nM
22  COc1ccc(F)cc1C(=O)NCc1ccc(-c2ncc(-c3ccccn3)c3[nH]nc(N)c23)cc1 [Example 15]      ≤ 1 nM
23  COc1ccc(F)cc1C(=O)NCc1ccc(-c2ncc(-c3ccc(OCCN4CCOCC4)cn3)c3[nH]nc(N)c23)cc1 [Example 61]      ≤ 1 nM
24  COc1ccc(F)cc1C(=O)NCc1ccc(-c2ncc(-c3ccc(Cl)cn3)c3[nH]nc(N)c23)cc1 [Example 38]  5 to 50 nM
